FYI, the data here is from the supplement of paper PMC9170038.

Test system: K4 kissing-loop RNA reporter;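 further: bound reporter read as fluorescence of individual clusters on recovered sequencing chips by microscopy, with normalized cluster intensities fitted with a binding model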
Experiment: apparent KD of K4 kissing-loop reporter; higher = weaker reporter binding
Conditions: Eterna round: R107; input ligand: FMN 200 uM
Below, each entry is listed with its recorded apparent KD of K4 kissing-loop reporter.
Provide the reading as a plain figure in nM.

Recorded apparent KD of K4 kissing-loop reporter (sequence CGUUUAUAGCAGGAUACCAGUACCGAUAAAGUACGUUAAUAGUAGAGUGAUGUUCUAAAGUACCCUUGGCAGCUUAGAGUGAGUG [ExTheophylB.P] ): 95.3

Recorded apparent KD of K4 kissing-loop reporter (sequence UGUCAUUGGUCUGAUACCAGUUGAUGACGAAUACGUCAACUGGAGUGAUGUUCCAAUAACAACCCUUGGCAGCAGACCGAUGACU [MAT - Same State Theophlline B - Mod of Eli - D3] ): 557

Others:
Recorded apparent KD of K4 kissing-loop reporter (sequence GUCGGCCGCGCGCAAGCGCGGCCGGCCGAUACCAGCGCGCCGGCGCGCCCUUGGCAGCGGCGCCGAGUGAUGUUCGGCCUGACGU [#2 Same State - Theophylline A Attempt #7 (HarryS)] ): 710
